# subject_of_test: T1, Recombinant soluble E protein (0.8E-His) from DENV-4 (DENV-4, UniProt P09866 280-674)
# T1 construct: also called DENV-4 E protein; DV4
# measurement_protocol: SPR, Biacore T200
readout_type: binding result

| binder | readout_type | reported_result |
| --- | --- | --- |
| DG_3CH989-SG182/3CL119-SK1 (antibody, V domains shown) VH: QVQLVQSGAEVKKPGASVKVSCKASGYTFTSNYIHWVRQAPGQGLEWMGVINPRGGSRRSAQKFQGRVTMTRDTSTSTVYMELSSLRSEDTAVYYCARGGRALFYDSYTTPFDGGSWWFDPWGQGSLVTVSS VL: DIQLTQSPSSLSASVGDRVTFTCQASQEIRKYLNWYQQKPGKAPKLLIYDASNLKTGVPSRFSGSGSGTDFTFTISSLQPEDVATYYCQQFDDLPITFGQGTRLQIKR | binding result | binds |
| DG_3CH992-SG182/3CL633-SK1 (antibody, V domains shown) VH: QVQLVQSGAEVKKPGASVKVSCKASGYTFTSYYIHWVRQAPGQGLEWMGVINPRGGSRRSAQKFQGRVTMTRDTSTSTVYMELSSLRSEDTAVYYCARGGRALFYDSYTTPFDGGSWWFDPWGQGSLVTVSS VL: DIQLTQSPSSLSASVGDRVTITCQASQDIRKYLNWYQQKPGKAPKLLIYDASNLKTGVPSRFSGSGSGTDFTLTISSLQPEDVATYYCQQFDDLPITFGQGTRLQIKR | binding result | binds |
